target_desc: Pf20S β5 (Plasmodium falciparum, UniProt A0A5K1K7U1+Q8IJT1)
Sequence (Q8IJT1 61-271): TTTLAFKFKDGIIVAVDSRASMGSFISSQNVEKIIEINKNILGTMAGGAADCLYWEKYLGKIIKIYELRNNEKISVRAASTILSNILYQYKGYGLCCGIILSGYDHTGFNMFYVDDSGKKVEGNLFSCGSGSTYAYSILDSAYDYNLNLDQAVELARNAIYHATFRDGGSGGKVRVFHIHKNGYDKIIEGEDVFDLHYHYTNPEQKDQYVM
Sequence (A0A5K1K7U1 29-240): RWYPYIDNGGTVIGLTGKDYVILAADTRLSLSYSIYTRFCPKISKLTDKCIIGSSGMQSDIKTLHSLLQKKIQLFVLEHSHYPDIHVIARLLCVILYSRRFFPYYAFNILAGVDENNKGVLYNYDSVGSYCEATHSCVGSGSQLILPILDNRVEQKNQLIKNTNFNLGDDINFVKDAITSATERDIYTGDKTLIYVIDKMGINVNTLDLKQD
assay: biochemical
experimental_context: IC50 Pf20S β5, Table 3; mean of at least three independent experiments
outcome_measure: IC50 (µM)
Numbers only, in µM.

[ask] Using known records, supply IC50 for Cc1ccc(S(=O)(=O)N[C@@H](CC(=O)NC(C)(C)C)C(=O)NCCNC(=O)c2c(O)cccc2F)cc1 [WHZ-20]
[reply] 4.06

----------
target_desc: i-20S β5i (Homo sapiens, UniProt P20618+P28062)
assay: human i-20S β5i enzyme inhibition
Type: biochemical
outcome_measure: IC50 (µM)
Numbers only, in µM.

[ask] Using known records, supply IC50 for Cc1ccc(S(=O)(=O)N[C@@H](CC(=O)NC(C)(C)C)C(=O)NCCNC(=O)c2c(O)cccc2F)cc1 [WHZ-20]
[reply] 9.97

----------
assay: PAMPA permeability
Assay type: in vitro ADME
experimental_context: pH 7.4
Would you mind telling me the reported PAMPA @ pH7.4 of each entry?
Answers are plain numbers, in nm/sec.

Study these solved cases before continuing.
Cc1ccc(S(=O)(=O)N[C@@H](CC(=O)NC(C)(C)C)C(=O)NCCNC(=O)c2ccccc2)cc1 [WHZ-04] : 137
C#Cc1cccc(C(=O)NCCNC(=O)[C@H](CC(=O)NC(C)(C)C)NS(=O)(=O)c2ccc(C)cc2)c1 [WHZ-13] : 203
COc1cccc(C(=O)NCCNC(=O)[C@H](CC(=O)NC(C)(C)C)NS(=O)(=O)c2ccc(C)cc2)c1 [WHZ-12] : 159

[ask] Using known records, supply PAMPA @ pH7.4 for Cc1ccc(S(=O)(=O)N[C@@H](CC(=O)NC(C)(C)C)C(=O)NCCNC(=O)c2ccccc2F)cc1 [WHZ-05]
[reply] 105
